Tested on: MDA-MB-468 breast
assayRemarks: NCI-60 one-dose screen, 48 h
conditionDescription: 10 µM unless noted
About 83,000 compounds went through this panel and 20% of them were active in at least one assay; those are over-represented in the sample as a whole. The source made the active and inactive calls. The calls were made as follows: active = growth percent below 10; inactive = the rest.
Would you mind answering with one of these outcomes? Y for active, N for inactive

## Input Which outcome did this test record for the molecule Nc1nc(-c2ccccc2Br)nn1-c1nc2ccccc2s1 ?
## Output N

## Input Then what about the molecule C=CC(=O)N1CCN(c2ccc3cccc(NC(=O)c4cnc(C)cn4)c3n2)CC1 ?
## Output Y

## Input Then what about the molecule Cc1cc(C#Cc2ccccc2)ccc1-n1c(/C=C/c2ccc(F)cc2)nc2ccccc2c1=O ?
## Output N

## Input Then what about the molecule COc1ccc2nc(-c3ccc(-c4noc(-c5cc(OC)c(OC)c(OC)c5)n4)cc3)[nH]c2c1 ?
## Output N

## Input Then what about the molecule COc1ccc(-c2nc(N/N=C/c3cccc(O)c3)nc(N3CCOCC3)c2C#N)cc1 ?
## Output N

## Input Then what about the molecule Cn1c2ccc(Br)cc2c2c3c(c4c5ccccc5[nH]c4c21)C(=O)N(O)C3=O ?
## Output Y

## Input Then what about the molecule C#COc1cccc(Nc2ncnc3cc(NC(=O)[C@@H](C)Cl)ccc23)c1 ?
## Output N

## Input Then what about the molecule COc1ccc(Cn2cc3c(c2-c2cc(OC)c(OC)c(OC)c2)CCc2cnoc2-3)cc1N ?
## Output Y

## Input Then what about the molecule CCN(CC)CCOc1ccc2c(-c3ccccc3)c(-c3ccc(OC)cc3)c(=O)oc2c1 ?
## Output N

## Input Then what about the molecule Cc1[nH]c(N=Nc2ccccc2)nc1N=Nc1ccccc1 ?
## Output N
